Target sequence: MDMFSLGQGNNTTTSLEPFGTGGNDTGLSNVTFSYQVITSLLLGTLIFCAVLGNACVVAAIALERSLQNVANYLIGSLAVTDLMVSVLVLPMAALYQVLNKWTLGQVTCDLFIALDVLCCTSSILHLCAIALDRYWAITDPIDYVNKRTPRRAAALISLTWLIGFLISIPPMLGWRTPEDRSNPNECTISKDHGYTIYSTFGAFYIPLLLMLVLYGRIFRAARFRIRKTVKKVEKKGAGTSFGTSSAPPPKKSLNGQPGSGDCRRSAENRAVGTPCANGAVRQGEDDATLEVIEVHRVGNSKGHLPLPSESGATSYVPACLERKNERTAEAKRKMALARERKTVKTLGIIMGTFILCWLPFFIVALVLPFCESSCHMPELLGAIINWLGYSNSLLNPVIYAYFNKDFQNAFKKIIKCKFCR
endpoint-name: Ki (nM)
Give the value in nM but do not write nM after it.

Given the entry Cc1cccc(C(=O)NCN2CCN(c3ccccc3C#N)CC2)c1 [PD-168,077] , report its measured Ki.
385
